The reported measurements were obtained from PubChem BioAssay AID2060490.

test system: 885512-296-R-J2-PDC complex spheroid viability; assay: Anticancer human tumor 885512-296-R-J2-PDC patient-derived breast carcinoma cell line growth inhibition [GQUAD]; conditions: curve of first compound; second compound 0.0316 µM;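 further: spheroids exposed to the compounds for one week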
attribute measured: IC50 (µM)
Write the value in µM as a bare number.

>  <compound>
O=C(c1cc(Cc2n[nH]c(=O)c3ccccc23)ccc1F)N1CCN(C(=O)C2CC2)CC1 + CN(C)c1ccc(Nc2c3ccc(NC(=O)CCN4CCCC4)cc3nc3cc(NC(=O)CCN4CCCC4)ccc23)cc1

>  <unit string>
µM

>  <result number>
7.62

$$$$
>  <compound>
CC[C@@]1(O)C(=O)OCc2c1cc1n(c2=O)Cc2cc3c(CN(C)C)c(O)ccc3nc2-1 + Cc1cnc(CNC(=O)c2c(=O)c3ccc(N4CCCN(C)CC4)nc3n3c2sc2ccccc23)cn1

>  <unit string>
µM

>  <result number>
0.0139

$$$$
>  <compound>
CC1COCCN1c1cc(C2(S(C)(=N)=O)CC2)nc(-c2ccnc3[nH]ccc23)n1 (stereo not given) + Cc1[nH]c2ccc(F)cc2c1-c1nc2c3cccnc3c3ncccc3c2[nH]1

>  <unit string>
µM

>  <result number>
0.838

$$$$
>  <compound>
COc1cccc2c1C(=O)c1c(O)c3c(c(O)c1C2=O)CC(O)(C(=O)CO)CC3OC1CC(N)C(O)C(C)O1 (stereo not given) + Cc1cnc(CNC(=O)c2c(=O)c3ccc(N4CCCN(C)CC4)nc3n3c2sc2ccccc23)cn1

>  <unit string>
µM

>  <result number>
0.0601

$$$$
>  <compound>
COc1cccc2c1C(=O)c1c(O)c3c(c(O)c1C2=O)CC(O)(C(=O)CO)CC3OC1CC(N)C(O)C(C)O1 (stereo not given) + CN(C)c1ccc(Nc2c3ccc(NC(=O)CCN4CCCC4)cc3nc3cc(NC(=O)CCN4CCCC4)ccc23)cc1

>  <unit string>
µM

>  <result number>
0.0697

$$$$
>  <compound>
C=CCn1c(=O)c2cnc(Nc3ccc(N4CCN(C)CC4)cc3)nc2n1-c1cccc(C(C)(C)O)n1 + CN(C)c1ccc(Nc2c3ccc(NC(=O)CCN4CCCC4)cc3nc3cc(NC(=O)CCN4CCCC4)ccc23)cc1

>  <unit string>
µM

>  <result number>
0.415

$$$$

Could you share which IC50 value was measured for CC(=O)O[C@H]1C(=O)[C@@]2(C)[C@H]([C@H](OC(=O)c3ccccc3)[C@]3(O)C[C@H](OC(=O)[C@H](O)[C@@H](NC(=O)c4ccccc4)c4ccccc4)C(C)=C1C3(C)C)[C@]1(OC(C)=O)CO[C@@H]1C[C@@H]2O + Cc1[nH]c2ccc(F)cc2c1-c1nc2c3cccnc3c3ncccc3c2[nH]1 ?
0.148

Could you share which IC50 value was measured for C=CCn1c(=O)c2cnc(Nc3ccc(N4CCN(C)CC4)cc3)nc2n1-c1cccc(C(C)(C)O)n1 + Cc1[nH]c2ccc(F)cc2c1-c1nc2c3cccnc3c3ncccc3c2[nH]1 ?
6.58

Could you share which IC50 value was measured for CCCS(=O)(=O)Nc1ccc(F)c(C(=O)c2c[nH]c3ncc(-c4ccc(Cl)cc4)cc23)c1F + CN(C)c1ccc(Nc2c3ccc(NC(=O)CCN4CCCC4)cc3nc3cc(NC(=O)CCN4CCCC4)ccc23)cc1 ?
8.18

Could you share which IC50 value was measured for CCCS(=O)(=O)Nc1ccc(F)c(C(=O)c2c[nH]c3ncc(-c4ccc(Cl)cc4)cc23)c1F + Cc1[nH]c2ccc(F)cc2c1-c1nc2c3cccnc3c3ncccc3c2[nH]1 ?
0.393

Could you share which IC50 value was measured for O=C(c1cc(Cc2n[nH]c(=O)c3ccccc23)ccc1F)N1CCN(C(=O)C2CC2)CC1 + Cc1[nH]c2ccc(F)cc2c1-c1nc2c3cccnc3c3ncccc3c2[nH]1 ?
8.27

Could you share which IC50 value was measured for COc1ncnc(C2CC2)c1-c1ncc2cnn(Cc3ccc(-c4nc(C(F)(F)F)cn4C(C)C)cc3)c2n1 + Cc1[nH]c2ccc(F)cc2c1-c1nc2c3cccnc3c3ncccc3c2[nH]1 ?
0.948

Could you share which IC50 value was measured for CC1COCCN1c1cc(C2(S(C)(=N)=O)CC2)nc(-c2ccnc3[nH]ccc23)n1 (stereo not given) + Cc1cnc(CNC(=O)c2c(=O)c3ccc(N4CCCN(C)CC4)nc3n3c2sc2ccccc23)cn1 ?
0.367
